Molecular target: High affinity choline transporter 1 (Homo sapiens, UniProt Q9GZV3)
Sequence (Q9GZV3 whole entry): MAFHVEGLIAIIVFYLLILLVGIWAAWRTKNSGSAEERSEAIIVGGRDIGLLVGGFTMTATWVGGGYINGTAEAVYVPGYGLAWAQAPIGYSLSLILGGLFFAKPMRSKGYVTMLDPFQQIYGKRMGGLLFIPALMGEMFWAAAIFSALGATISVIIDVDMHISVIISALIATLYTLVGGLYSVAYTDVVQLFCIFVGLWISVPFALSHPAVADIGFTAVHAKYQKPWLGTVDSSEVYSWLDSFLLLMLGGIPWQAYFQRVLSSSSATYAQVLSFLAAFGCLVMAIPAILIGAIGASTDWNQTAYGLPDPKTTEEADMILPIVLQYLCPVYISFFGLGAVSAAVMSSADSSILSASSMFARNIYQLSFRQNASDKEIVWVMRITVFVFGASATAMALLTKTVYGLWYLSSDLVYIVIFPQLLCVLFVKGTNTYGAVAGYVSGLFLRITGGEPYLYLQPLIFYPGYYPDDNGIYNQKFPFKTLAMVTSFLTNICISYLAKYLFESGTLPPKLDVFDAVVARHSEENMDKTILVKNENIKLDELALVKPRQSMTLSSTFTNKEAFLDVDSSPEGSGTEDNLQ
Assay: CHT inhibitors, dose response, cell-based, 5-point CRC, membrane potential dye (AID 504840)
Type: functional
The source made the active and inactive calls.
Form field: IC50 (one value per entry).
quantity-measured: IC50

>  <smiles-entry>
Cc1ccc(C(=O)C[n+]2cccc3ccccc32)cc1

>  <value-reported>
13.8 µM (active)

$$$$
>  <smiles-entry>
O=C(CC(CC(=O)c1ccc(Cl)cc1)c1ccccc1C(=O)O)c1ccc(Cl)cc1

>  <value-reported>
13.8 µM (active)

$$$$
>  <smiles-entry>
Cc1ccc(-c2cc(C(=O)NCCCn3ccnc3)c3cc(Br)ccc3n2)o1

>  <value-reported>
11.5 µM (active)

$$$$
>  <smiles-entry>
O=C(NC(=S)NNC(=O)c1cccs1)c1ccc(Br)o1

>  <value-reported>
28.8 µM (active)

$$$$
>  <smiles-entry>
CCn1cc(C(=O)N2CCCCC2)c(=O)c2cc(S(=O)(=O)N3CCC(C)CC3)ccc21

>  <value-reported>
16.2 µM (active)

$$$$

----------
system: BJ; experiment: cells; assay type: functional, cell-based; settings: Homo sapiens
The source made the active and inactive calls.
Form field: EC50 (one value per entry).
quantity-measured: EC50

>  <smiles-entry>
C=CCNC(=O)c1ccc(NC(=O)C2=CSCCO2)cc1

>  <test-system>
BJ

>  <quantity-measured>
EC50

>  <value-reported>
111 µM (active)

$$$$
>  <smiles-entry>
COC(=O)C1=C(C)N(Cc2ccccc2)C(NCc2cccc(C(F)(F)F)c2)=N[C@H]1c1cccc(F)c1

>  <test-system>
BJ

>  <quantity-measured>
EC50

>  <value-reported>
> 150 µM (inconclusive)

$$$$
>  <smiles-entry>
CC(=O)n1cc(N(C(=O)CCl)c2ccccc2)c2ccccc21

>  <test-system>
BJ

>  <quantity-measured>
EC50

>  <value-reported>
1.51 µM (inconclusive)

$$$$
>  <smiles-entry>
C/C(=N\NC(=O)c1ccccc1NC(=O)c1ccc(Cl)cc1)c1ccncc1

>  <test-system>
BJ

>  <quantity-measured>
EC50

>  <value-reported>
1.21 µM (inconclusive)

$$$$

----------
test: THP-1 cell cytotoxicity, dose response, cytotoxicity control for non-replicating M. tuberculosis project (AID 489025); assay type: functional
Active and inactive are the calls of the source.

>  <molecule>
NCCOc1ccc(C23CC4CC(CC(C4)C2)C3)cc1

>  <CC50>
11.4 µM (active)

$$$$
>  <molecule>
C/N=C1/S/C(=C\c2ccc(OCC(=O)OC)c(OC)c2)C(=O)N1C

>  <CC50>
> 40 µM (active)

$$$$
>  <molecule>
CCc1ccc(OCCNc2cc(N3CCNC(C)C3)ccc2[N+](=O)[O-])cc1 (stereo not given)

>  <CC50>
12.4 µM (active)

$$$$
>  <molecule>
CC(C)(C)c1csc(NC(=O)c2ccccc2O)n1

>  <CC50>
38.7 µM (active)

$$$$
>  <molecule>
O=C(Nc1nc(-c2cccs2)cs1)c1ccc([N+](=O)[O-])o1

>  <CC50>
9.67 µM (active)

$$$$

----------
Below are AC50 values recorded for UniProtKB P10635.
Sequence (P10635 whole entry): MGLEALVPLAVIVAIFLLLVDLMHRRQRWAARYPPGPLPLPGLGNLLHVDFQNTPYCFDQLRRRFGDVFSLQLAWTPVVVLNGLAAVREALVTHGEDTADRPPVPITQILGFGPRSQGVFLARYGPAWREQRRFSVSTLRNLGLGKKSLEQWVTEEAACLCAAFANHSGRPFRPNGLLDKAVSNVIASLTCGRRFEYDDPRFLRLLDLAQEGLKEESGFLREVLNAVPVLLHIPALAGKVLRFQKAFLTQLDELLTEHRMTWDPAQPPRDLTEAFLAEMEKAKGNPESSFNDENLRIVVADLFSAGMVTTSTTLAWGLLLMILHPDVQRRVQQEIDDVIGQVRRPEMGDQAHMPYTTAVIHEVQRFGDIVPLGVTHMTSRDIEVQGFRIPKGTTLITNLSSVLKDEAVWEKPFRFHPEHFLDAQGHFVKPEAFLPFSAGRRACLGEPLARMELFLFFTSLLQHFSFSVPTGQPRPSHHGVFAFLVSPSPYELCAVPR

>  <smiles-entry>
CN1CCc2c(sc3c2c(=O)n(-c2ccccc2)c2nncn32)C1

>  <test-system>
UniProtKB P10635

>  <AC50>
inconclusive

$$$$
>  <smiles-entry>
O=C(O)[C@@H](c1ccccc1)[C@@H](C(=O)O)c1ccccc1

>  <test-system>
UniProtKB P10635

>  <AC50>
inconclusive

$$$$
>  <smiles-entry>
O=C(c1cc(C(F)(F)F)cc(C(F)(F)F)c1)N1CCC2(CC1)CN(c1ncccn1)C2

>  <test-system>
UniProtKB P10635

>  <AC50>
inconclusive

$$$$
>  <smiles-entry>
Cc1c(Cl)c(S(N)(=O)=O)cc(S(N)(=O)=O)c1NC(=O)c1ccc(Cl)cc1

>  <test-system>
UniProtKB P10635

>  <AC50>
inconclusive

$$$$
>  <smiles-entry>
CO[C@@H]1COC(=O)CC=C[C@@H](C)[C@@H]2C=C[C@H](O)[C@@H](COC(=O)[C@H](C)NC(=O)CC=C[C@H]1C)O2

>  <test-system>
UniProtKB P10635

>  <AC50>
inconclusive

$$$$

----------
test: HepG2 cell cytotoxicity, dose response, cytotoxicity control for non-replicating M. tuberculosis project (AID 489018); format: functional; conditions: Mycobacterium tuberculosis
Calls of active or inactive are those of the source.

>  <compound>
O=C(Nc1nc(-c2cccs2)cs1)c1ccc([N+](=O)[O-])o1

>  <CC50>
9.45 µM (active)

$$$$
>  <compound>
Oc1c2c(nc3c(-c4ccc(Cl)cc4)cnn13)CCC2

>  <CC50>
12.7 µM (active)

$$$$
>  <compound>
C/C(=N\NC(=O)c1ccccc1O)C1C(=O)c2ccccc2C1=O

>  <CC50>
> 20 µM (active)

$$$$
>  <compound>
CCc1ccc(OCCNc2cc(N3CCNC(C)C3)ccc2[N+](=O)[O-])cc1 (centres undefined)

>  <CC50>
12.4 µM (active)

$$$$

----------
Form field: AC50 (one value per entry).
test: HepG2 cell cytotoxicity, dose response, cytotoxicity control for Shn3 inhibitor project, CellTiter-Glo, cherry-picked (AID 624134); format: functional, cell-based
Calls of active or inactive are those of the source.
quantity-measured: AC50

>  <smiles-entry>
COc1ccc(-c2coc3c(C(=O)NCc4ccc(OC)c(OC)c4)cccc23)c(C)c1

>  <quantity-measured>
AC50

>  <value-reported>
1.77 µM (active)

$$$$
>  <smiles-entry>
CCN(CC)CCN1C(=O)/C(=C\c2ccc(Cl)c([N+](=O)[O-])c2)S/C1=N\c1ccc(OC)cc1

>  <quantity-measured>
AC50

>  <value-reported>
16.8 µM (active)

$$$$
>  <smiles-entry>
COc1ccc(-c2cc(N)n(S(=O)(=O)c3c(F)c(F)c(F)c(F)c3F)n2)cc1OC

>  <quantity-measured>
AC50

>  <value-reported>
20.2 µM (active)

$$$$
>  <smiles-entry>
COc1ccc(NS(=O)(=O)c2ccc3ccccc3c2)c2ncccc12

>  <quantity-measured>
AC50

>  <value-reported>
69.5 µM (active)

$$$$
>  <smiles-entry>
COc1cc(OC)c(OC)cc1CNc1cc(C)ccc1OC

>  <quantity-measured>
AC50

>  <value-reported>
47.2 µM (active)

$$$$
>  <smiles-entry>
CCN(CC)CCCNc1[nH]c2ccccc2c2nc3ccc(OC)cc3c1-2

>  <quantity-measured>
AC50

>  <value-reported>
4.9 µM (active)

$$$$

----------
target: UniProtKB P9WMR3; experiment: DnaB intein splicing inhibitors, dose response, biochemical, cell-free fluorescence (AID 449749); type: functional
Active and inactive are the calls of the source.
quantity-measured: AC50

>  <molecule>
C=CCNC1=C(Cl)C(=O)c2ccccc2C1=O

>  <value-reported>
4.75 µM (active)

$$$$
>  <molecule>
COc1cc(/C=N/NC(=O)CC2(C)OCCCO2)ccc1OCc1ccccc1

>  <value-reported>
2.64 µM (active)

$$$$
>  <molecule>
CCOc1ccc(NC(=O)C(c2ccccn2)N(C(=O)CCl)c2ccc(F)cc2)cc1 (stereo unspecified)

>  <value-reported>
7.1 µM (active)

$$$$
>  <molecule>
Cc1nn(Cc2ccccc2)c2c1C(c1ccncc1)C(C#N)=C(N)O2 (stereo unspecified)

>  <value-reported>
11.1 µM (active)

$$$$
>  <molecule>
O=C(NCc1cccnc1)/C(=C\c1ccc(-c2cccc(Cl)c2)o1)S(=O)(=O)c1ccccc1

>  <value-reported>
13.7 µM (active)

$$$$
>  <molecule>
Cc1ccc(C(=O)c2coc3cc([N+](=O)[O-])c(O)c([N+](=O)[O-])c23)cc1

>  <value-reported>
24.4 µM (active)

$$$$

Taken from ChEMBL document CHEMBL1201862.
